Where do these numbers come from? They come from patent US6727263B2.

Where a name gives a salt, the structure may show the parent alone.
Endpoint label: melting point

Q: Fill in the blank: the reported melting point of C=CCN1CC(CCN2CCN(c3cccc4c3OCCO4)CC2)c2ccccc21.O=C(O)C(=O)O (centres unmarked) is ____.
A: 133 to 136 °C

Q: Ok, now Cc1cc2c(c(C3CCN(CCc4c[nH]c5cc(Cl)ccc45)CC3)c1)OC(C)(C)C2.O=C(O)/C=C/C(=O)O [Compound 1d]
A: 232 to 237 °C

Q: Query Fc1ccc2[nH]cc(CCN3CCC(c4cccc5ccoc45)CC3)c2c1.O=C(O)C(=O)O next
A: 191 to 194 °C

Q: And Clc1ccc2c(c1)NCC2CCN1CCN(c2cccc3c2OCCO3)CC1.O=C(O)C(=O)O (centres unmarked) [Compound 4d] ?
A: 185 to 188 °C

Q: // repeat for O=C(O)C(=O)O.c1cc2c(c(N3CCN(CCn4ccc5ccccc54)CC3)c1)OCC2 and report
A: 223 to 226 °C

Q: Another: Clc1ccc2[nH]cc(CCN3CCN(c4cccc5ccsc45)CC3)c2c1.O=C(O)C(=O)O
A: 175.2 to 176.6 °C

Q: // query: CC1(C)Cc2cccc(C3=CCN(CCc4c[nH]c5cc(Cl)ccc45)CC3)c2O1 (as salt: oxalate) [Compound 1g]
A: 200 to 204 °C

Q: What do you get for Clc1cccc2[nH]cc(CCN3CCN(c4cccc5c4OCCO5)CC3)c12.O=C(O)C(=O)O [Compound 1e] ?
A: 210 to 218 °C

---

Biological target: human 5-HT1A receptors (Homo sapiens)
Construct: expressed in transfected cells; host or cells: HeLa cells (HA7), used as cell homogenate
Sequence (P08908 whole entry): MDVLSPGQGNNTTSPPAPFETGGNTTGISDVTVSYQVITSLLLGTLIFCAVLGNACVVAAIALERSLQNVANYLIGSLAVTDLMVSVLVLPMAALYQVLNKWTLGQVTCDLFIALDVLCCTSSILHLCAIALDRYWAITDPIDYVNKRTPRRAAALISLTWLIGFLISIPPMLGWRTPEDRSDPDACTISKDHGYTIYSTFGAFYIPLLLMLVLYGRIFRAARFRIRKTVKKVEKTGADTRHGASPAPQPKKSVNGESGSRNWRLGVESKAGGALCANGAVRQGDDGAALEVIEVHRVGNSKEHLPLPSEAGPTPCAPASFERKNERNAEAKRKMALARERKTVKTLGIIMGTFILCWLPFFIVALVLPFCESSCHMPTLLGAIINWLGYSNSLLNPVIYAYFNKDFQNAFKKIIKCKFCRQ
Test: Inhibition of 3H-5-CT binding to human 5-HT1A receptors
Settings: cloned human 5-HT1A receptors expressed in transfected HeLa cells (HA7), cell homogenate, 15 minutes at 37° C., pH 7.7
Procedure: Inhibition of ^3H-5-CT Binding to Human 5-HT1A Receptors Human 5-HT1A receptors (40 μg of cell homogenate) were incubated for 15 minutes at 37° C. in 50 mM Tris buffer at pH 7.7 in the presence of ^3H-5-CT. Non-specific binding was determined by including 10 μM of metergoline. The reaction was terminated by rapid filtration through Unifilter GF/B filters on a Tomtec Cell Harvester. Filters were counted in a Packard Top Counter.
Endpoint label: pIC50
Kindly note that pIC50 refers to -log10 of the concentration in mol/L and answer with the value alone.

Q: What value of measured pIC50 is listed for Clc1ccc2c(c1)NCC2CCN1CCN(c2cccc3c2OCCO3)CC1.O=C(O)C(=O)O (centres unmarked) [Compound 4d, oxalate] ?
A: 7.85

Q: Subsequent entry: CC(=O)N1CC(CCN2CCN(c3cccc4c3OCCO4)CC2)c2ccccc21 (centres unmarked)
A: 7.89

---

Target: cloned 5-HT1A receptors (Homo sapiens)
Sequence (P08908 whole entry): as above
Test: Antagonism of 5-HT induced inhibition of forskolin induced cAMP accumulation
Conditions: cloned 5-HT1A receptors in transfected HeLa cells (HA7)
Where a name gives a salt, the structure may show the parent alone.
# YES = IC50 below 2000 nM (exclusive); NO = IC50 at/above 2000 nM

Q: Determine whether this compound shows IC50 lower than 2000 nM (ties excluded): Clc1ccc2c(CCN3CCN(c4cccc5c4SCCC5)CC3)c[nH]c2c1 [Compound 1t]
A: NO

Q: Another compound: c1cc2c(c(N3CCN(CCc4c[nH]c5ccccc45)CC3)c1)OCCO2 [Compound 2a]
A: YES

Q: Another compound to check: Clc1ccc2c(CCN3CC=C(c4cccc5c4OCC5)CC3)c[nH]c2c1.O=C(O)C(=O)O [Compound 1x, oxalate]
A: NO

Q: Repeat with CC1(C)CCc2cc(Cl)cc(N3CCN(CCc4c[nH]c5cc(Cl)ccc45)CC3)c2O1.O=C(O)/C=C/C(=O)O [Compound 3d, fumarate]
A: NO

Q: Can you handle Clc1ccc2c(c1)NCC2CCN1CCN(c2cccc3c2OCCO3)CC1.O=C(O)C(=O)O (centres unmarked) [Compound 4d, oxalate] next?
A: YES

Q: Same lookup for Fc1ccc2[nH]cc(CCN3CCN(c4cccc5c4OCCO5)CC3)c2c1.O=C(O)C(=O)O [Compound 1h, oxalate] , please.
A: YES

Q: Same question for CN1CC(CCN2CCN(c3cccc4c3OCCO4)CC2)c2ccccc21 (centres unmarked) [Compound 6a, Oxalate] please.
A: YES
